Below, each of the sequences is paired with its reported self-splicing fitness (ln) value.
- TEST: self-splicing fitness, log relative to wild type (ln ratio); higher = more splicing; Tetrahymena group I intron in knt gene, E. coli kanamycin selection, DiMSum; sequences stand for … in CUCUCU…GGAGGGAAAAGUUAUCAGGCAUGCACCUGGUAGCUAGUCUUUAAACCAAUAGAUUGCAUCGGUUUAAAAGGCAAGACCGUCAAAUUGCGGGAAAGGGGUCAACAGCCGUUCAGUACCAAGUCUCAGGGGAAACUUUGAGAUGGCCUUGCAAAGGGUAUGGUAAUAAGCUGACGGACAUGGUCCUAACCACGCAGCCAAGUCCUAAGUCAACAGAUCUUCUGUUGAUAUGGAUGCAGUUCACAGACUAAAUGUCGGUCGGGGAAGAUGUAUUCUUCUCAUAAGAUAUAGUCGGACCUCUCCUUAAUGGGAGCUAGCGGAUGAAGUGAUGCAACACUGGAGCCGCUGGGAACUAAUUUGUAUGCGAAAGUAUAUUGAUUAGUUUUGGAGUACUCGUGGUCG;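 note: selection with 25 µg/mL kanamycin versus none on LB agar overnight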
- TEST_PARAMETERS: 30 °C
REPORTED_ENDPOINT: self-splicing fitness (ln)

CACCAGCAAUAUUACGCCUU : -3.62
CACUAGCAAUAUUACGAAUG : -1.7
AUGUAGCAAUAUUACGCCAG : -3.46
CCUGAGCAAUAUUACGCGCU : -4.19
CUGUAGCAAUAUUACGUAUG : -0.387
UCGCAGCAAUAUUACGUAUC : -3.82
GGUGAGCAAUAUUACGCCCU : -1.66
CGUCAGCAAUAUUACGUCGU : -3
GUUCAGCAAUAUUACGUAUC : -0.532
AGCAAGCAAUAUUACGAACU : -0.731
AACUAGCAAUAUUACGAUUA : -0.307
UUGUAGCAAUAUUACGACUU : -0.894
UGUAAGCAAUAUUACGAUGC : -3.75
AUAAAGCAAUAUUACGCCCC : -0.123
GCUGAGCAAUAUUACGGAUG : -3.53
CAAGAGCAAUAUUACGCCAG : -1.92
CUUUAGCAAUAUUACGGUCG : -0.496
AAUCAGCAAUAUUACGAAUU : -0.152
CGCGAGCAAUAUUACGACCC : -0.487
ACAAAGCAAUAUUACGCAGC : -2.63
CCAGAGCAAUAUUACGGAAG : -2.32
UGCCAGCAAUAUUACGAGCG : -0.919
CAAAAGCAAUAUUACGGAGU : -3.64
GAUAAGCAAUAUUACGACGA : -0.165
AACUAGCAAUAUUACGGACA : -0.804
CAAAAGCAAUAUUACGUAAU : -3.57
UAAUAGCAAUAUUACGGGGG : -3.12
GACGAGCAAUAUUACGCAAA : -3.39
UUGGAGCAAUAUUACGUAUA : -2.08
UAACAGCAAUAUUACGCUGC : -2.45
GCGCAGCAAUAUUACGAGUA : -2.36
GCCAAGCAAUAUUACGGUUA : -0.632
GCUGAGCAAUAUUACGUUGC : -4.04
GCUUAGCAAUAUUACGGAAG : -2.07

----------
- TEST: self-splicing fitness, log relative to wild type (ln ratio); higher = more splicing; Tetrahymena group I intron in knt gene, E. coli kanamycin selection, DiMSum; sequences stand for … in CUCUCU…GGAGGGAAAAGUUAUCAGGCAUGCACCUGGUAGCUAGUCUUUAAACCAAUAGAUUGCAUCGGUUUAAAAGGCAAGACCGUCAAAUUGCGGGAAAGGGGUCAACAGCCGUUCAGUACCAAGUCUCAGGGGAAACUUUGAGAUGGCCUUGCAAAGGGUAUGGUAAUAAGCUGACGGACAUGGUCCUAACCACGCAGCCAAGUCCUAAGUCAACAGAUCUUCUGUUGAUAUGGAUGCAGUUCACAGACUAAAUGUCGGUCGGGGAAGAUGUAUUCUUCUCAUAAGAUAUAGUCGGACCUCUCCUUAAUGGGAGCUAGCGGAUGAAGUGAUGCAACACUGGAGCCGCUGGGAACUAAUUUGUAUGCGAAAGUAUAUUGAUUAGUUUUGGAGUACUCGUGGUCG
- TEST_PARAMETERS: 30 °C
Lab note: compare self-splicing fitness (ln) against -3. Equal or greater, write Fulfilled. Smaller, write Not fulfilled.

GCCUAGCAAUAUUACGCCAC : Fulfilled
CUAUAGCAAUAUUACGUGGA : Fulfilled
CUUCAGCAAUAUUACGCAGA : Not fulfilled
CUAUAGCAAUAUUACGCGGG : Not fulfilled
UGGCAGCAAUAUUACGCCGA : Fulfilled
UCCGAGCAAUAUUACGUCGC : Not fulfilled
AAAUAGCAAUAUUACGGAGG : Not fulfilled
CAAAAGCAAUAUUACGCAAC : Fulfilled
AGUAAGCAAUAUUACGGAUG : Not fulfilled
CGUAAGCAAUAUUACGUUAG : Fulfilled
AUAAAGCAAUAUUACGCCAA : Fulfilled
AUCGAGCAAUAUUACGUGCA : Fulfilled
CCACAGCAAUAUUACGUAAC : Not fulfilled
GCGGAGCAAUAUUACGCAUA : Fulfilled
UACAAGCAAUAUUACGCAGA : Fulfilled

----------
Parameter self-splicing fitness (ln): see the listing below.
- TEST: self-splicing fitness, log relative to wild type (ln ratio); higher = more splicing; Tetrahymena group I intron in knt gene, E. coli kanamycin selection, DiMSum; sequences stand for … in CUCUCU…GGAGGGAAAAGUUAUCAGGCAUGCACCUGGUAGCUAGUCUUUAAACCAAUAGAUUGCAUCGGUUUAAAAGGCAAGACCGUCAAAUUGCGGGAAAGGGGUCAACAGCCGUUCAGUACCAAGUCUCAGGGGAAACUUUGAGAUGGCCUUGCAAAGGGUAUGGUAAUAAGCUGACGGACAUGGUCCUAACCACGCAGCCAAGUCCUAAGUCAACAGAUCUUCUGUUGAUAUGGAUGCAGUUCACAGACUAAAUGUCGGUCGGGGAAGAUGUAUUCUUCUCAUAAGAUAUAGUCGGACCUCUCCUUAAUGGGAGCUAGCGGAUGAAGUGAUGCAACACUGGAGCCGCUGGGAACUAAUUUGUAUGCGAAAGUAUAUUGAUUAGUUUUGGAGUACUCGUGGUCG
- TEST_PARAMETERS: 37 °C
REPORTED_ENDPOINT: self-splicing fitness (ln)

CUUUAGCAAUAUUACGGAGU : -2.46
AUAUAGCAAUAUUACGAGUG : -1.8
GCCUAGCAAUAUUACGCGGA : 0.226
GUAAAGCAAUAUUACGCCGA : -0.839
UGGAAGCAAUAUUACGUGAG : -0.141
GACCAGCAAUAUUACGCAGC : -0.292
UGACAGCAAUAUUACGAGUA : -0.712
CAGUAGCAAUAUUACGCCUC : -2.4
CUAAAGCAAUAUUACGCAGA : -3.29
GCCUAGCAAUAUUACGUCUC : -0.518
GCCCAGCAAUAUUACGAUAG : -3.33
CCCCAGCAAUAUUACGGGAG : -2.61
AGAUAGCAAUAUUACGUCCU : 0.159
GUGCAGCAAUAUUACGUAGC : -0.976
ACAUAGCAAUAUUACGAAAA : -3.31
GCUUAGCAAUAUUACGGCGG : -3.14

----------
- TEST: self-splicing fitness, log relative to wild type (ln ratio); higher = more splicing; Tetrahymena group I intron in knt gene, E. coli kanamycin selection, DiMSum; sequences stand for … in CUCUCU…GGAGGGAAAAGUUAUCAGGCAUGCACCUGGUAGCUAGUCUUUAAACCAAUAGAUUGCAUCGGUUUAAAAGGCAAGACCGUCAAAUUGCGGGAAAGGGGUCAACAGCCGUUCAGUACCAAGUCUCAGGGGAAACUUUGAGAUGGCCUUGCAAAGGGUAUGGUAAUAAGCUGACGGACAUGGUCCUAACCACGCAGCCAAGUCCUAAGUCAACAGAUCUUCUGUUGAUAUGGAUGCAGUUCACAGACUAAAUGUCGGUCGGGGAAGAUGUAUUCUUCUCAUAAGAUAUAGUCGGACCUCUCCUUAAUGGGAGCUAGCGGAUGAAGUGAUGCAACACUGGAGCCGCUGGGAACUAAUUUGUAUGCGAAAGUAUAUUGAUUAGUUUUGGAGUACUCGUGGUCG
- TEST_PARAMETERS: 30 °C
Here, each record is paired with measured self-splicing fitness (ln) data.
REPORTED_ENDPOINT: self-splicing fitness (ln)

CGGCAGCAAUAUUACGACAA : -1.99
CGGGAGCAAUAUUACGCAGC : -3.21
CAGGAGCAAUAUUACGCUGA : -4.15
UGUAAGCAAUAUUACGGAGA : -2.88
CCCCAGCAAUAUUACGUCGG : -3.66
UGCAAGCAAUAUUACGAAGU : -3
UGCAAGCAAUAUUACGAAUC : -3.56
UUCCAGCAAUAUUACGGAAU : -3.81
GAAAAGCAAUAUUACGCGAU : -2.88
AUAGAGCAAUAUUACGACCA : -2.34
GGUUAGCAAUAUUACGCAGA : -1.17
AUUGAGCAAUAUUACGACAG : -3.48
UCGUAGCAAUAUUACGACGU : -3.04
GUCCAGCAAUAUUACGGCCU : -3.36
CGCUAGCAAUAUUACGACGU : -1.86
UCGCAGCAAUAUUACGGAUU : -3.46
